Hey, just so you know, these numbers are from patent US20070238700A1.

Test system: Ctenocephalides felis
property-name: C. felis Mortality (%) 24 h
Answer in %, number only, no unit symbol.

Asked: Which C. felis Mortality (%) 24 h reading was recorded for the molecule CCN(N=C(C)c1cc(Cl)ccc1NS(=O)(=O)C(F)(F)F)c1ccc(Cl)cc1 [Compound 26] ?
Given back: 100

Asked: Entry to check: CC(=NN(C)c1ccccc1)c1cc(Cl)ccc1N(C)S(=O)(=O)C(F)(F)F [Compound 109]
Given back: 100

Below: the item to evaluate.
Asked: What C. felis Mortality (%) 24 h value was documented for this molecule, CC(=NNC(=O)Nc1ccccc1)c1cc(Cl)ccc1NS(=O)(=O)C(F)(F)F [Compound 90] ?
Given back: 18

====

Test system: Haemonchus contortus
procedure-summary: Haemonchus contortus larvacidal assay (larval development, LD99)
Please note: H. contortus LD99 exactly at 2 ppm is F. Only values below 2 ppm get T.

# count of solved cases: 6
Asked: Identify whether the molecule CC(=NNc1ccc(C(F)(F)F)cc1)c1cc(Cl)ccc1NS(=O)(=O)C(F)(F)F [Compound 1] records H. contortus LD99 below 2 ppm.
Given back: F

Asked: Further, for CC(=NNc1cc(Cl)ccc1Cl)c1cc(Cl)ccc1NS(=O)(=O)C(F)(F)F [Compound 7] ?
Given back: T

Asked: Next record, please: CCC(=NNc1cc(Cl)cc(Cl)c1)c1cc(Cl)ccc1NS(=O)(=O)C(F)(F)F [Compound 16]
Given back: F

Asked: Now try CC(=NNc1cccc(Cl)c1Cl)c1cc(Cl)ccc1NS(=O)(=O)C(F)(F)F [Compound 3] .
Given back: T

Asked: Further, for CCC(=NNc1ccc(Br)cc1)c1cc(Cl)ccc1NS(=O)(=O)C(F)(F)F [Compound 15] ?
Given back: F

Asked: Next molecule up: COc1ccc(NN=C(C)c2cc(Cl)ccc2NS(=O)(=O)C(F)(F)F)cc1 [Compound 10]
Given back: F

Others:
Asked: Lab log: compare recorded H. contortus LD99 with 2 ppm; is it strictly lower for CCC(=NNc1ccc(Cl)cc1Cl)c1cc(Cl)ccc1NS(=O)(=O)C(F)(F)F [Compound 18] ?
Given back: T

Asked: Also check CC(=NNC(=O)c1ccccc1)c1cc(Cl)ccc1NS(=O)(=O)C(F)(F)F [Compound 11]
Given back: F

====

Tested on: Ctenocephalides felis
Measured C. felis Mortality (%) 8 h, listed per entry for reference.
Please give a number only; it is taken to be in %.

Known results for molecules:
Asked: Name the recorded C. felis Mortality (%) 8 h for CCN(N=C(C)c1cc(Cl)ccc1NS(=O)(=O)C(F)(F)F)c1cccc(F)c1 .
Given back: 100

Asked: And the next one, CCC(=NNC(=O)c1ccc(Cl)cc1)c1cc(Cl)ccc1NS(=O)(=O)C(F)(F)F ?
Given back: 60

Asked: Next molecule up: CC(=NN1CCCCC1)c1cc(Cl)ccc1NS(=O)(=O)C(F)(F)F
Given back: 100

Asked: Now this one: CC(=NN1CCOCC1)c1cc(Cl)ccc1NS(=O)(=O)C(F)(F)F
Given back: 100

Asked: Item: C#CCN(c1ccc(Cl)cc1C(C)=NN1CCCCC1)S(=O)(=O)C(F)(F)F
Given back: 5

More entries:
Asked: Form field: reported C. felis Mortality (%) 8 h of CN(C)N=C(c1ccccc1)c1cc(Cl)ccc1NS(=O)(=O)C(F)(F)F
Given back: 9

Asked: Also CC(=NN(C)c1ccccc1)c1ccc(C(F)(F)F)cc1NS(=O)(=O)C(F)(F)F ?
Given back: 28

Asked: Check CCOC(=O)N(C)N=C(C)c1cc(Cl)ccc1NS(=O)(=O)C(F)(F)F too.
Given back: 55

Asked: Next entry: C/C(=N\N(C)C1CCCC1)c1cc(Cl)ccc1NS(=O)(=O)C(F)(F)F
Given back: 12

Asked: Again, but for CC(=NN1CCCC1)c1cc(Cl)ccc1NS(=O)(=O)C(F)(F)F
Given back: 98
